measurement-name: melting point

Worked cases, answers included:
CC(=O)n1ccn(C(C)=O)c1=O    106 °C
CCP(=O)(OC)C(O)[C@H](CC1CCCCC1)NC(=O)[C@H](CC(C)C)NC(=O)[C@H](Cc1ccccc1)NC(=O)C1CCCC1 (stereo not given in full)    155 to 165 °C
O=C1c2ccccc2C(=O)N1CC(Cc1ccc([N+](=O)[O-])cc1)=NO    181 to 183 °C
CCCCc1noc(-c2ccc(C=CC(=O)NCC3CCCC3(C)C)cc2)n1 (stereo not given)    144 to 145 °C

Reported melting point for NC1Cc2ccccc2CN(CC(=O)O)C1=O (stereo not given) was 266 to 268 °C

Reported melting point for O=C(O)CC1CCCc2c1n(Cc1ccc(Cl)cc1)c1ccc(F)cc21 (single isomer, unassigned; (-)) was 151 to 152 °C

Reported melting point for CC=Cc1ccc2c(c1)C(=O)N(c1ccc(C(C)C(=O)OC(C)(C)C)cc1)C2 (stereo not given) was 125 to 130 °C

Reported melting point for CCCCCS(=O)(=O)NC(=O)CCCc1ccc(OCCOCC)cc1Oc1ncc(C(F)(F)F)cc1Cl was 96 to 97 °C

Reported melting point for CCOc1cc(N)ccc1C(O)c1cc(C)ccn1 (stereo not given) was 102 to 105 °C
